Measured z-score of individual entries
# assay.explanation: blockers of DNA damage checkpoint Chk1 activation – imaging, HeLa, hydroxyurea, phospho-Chk1 antibody, percent positive cells, primary screen (AID 1186)
# conditions.used: hydroxyurea-induced phospho-Chk1 immunofluorescence imaging, higher = more signal
measured.property: z-score

- CC(C)N1C(=O)C[C@@](C(=O)NCCN2CCOCC2)(c2ccc([N+](=O)[O-])cc2)[C@H]1c1ccc(CO)cc1: 0.159
- CCCCCC1=C2CNC(CC(C)C)(C(=O)OC)C=C2C(C)C1=O (stereo not drawn): 1.32
- COc1ccc([Si](C)(C)[C@@H]2[C@@H](CC(=O)N3Cc4ccccc4C[C@H]3CO)O[C@]3(C(=O)N(Cc4cccc(N5CCOC5=O)c4)c4ccccc43)[C@H]2C)cc1: -0.34
- CCOC(=O)C[C@H]1[C@H](OC(=O)c2ccccc2-c2ccccc2)[C@@H](NC(=O)C2CCCCC2)c2cc(OCCCO)ccc2N1C(=O)c1ccc2ccccc2n1: 0.0664
- COc1cc(C(O)C2C=CC3C(=O)N(c4ccccc4)C(=O)C3N2Nc2ccccc2F)cc(OC)c1OC (stereo not drawn): 0.409
- COC(=O)[C@@]1(Cc2ccc(OC)cc2)[C@H]2c3cc(C(=O)N4CCCC4)n(CCn4cc([N+](=O)[O-])nc4C)c3C[C@H]2CN1C(=O)c1ccccc1: 1.65
- CCCCCC1=C2CNC(Cc3ccccc3)(C(=O)OC)C=C2C(C)C1=O (stereo not drawn): 1.14
- COC(=O)[C@H](Cc1ccccc1)N1CC2=CCCC=C[C@@H]2[C@H]1[C@H](O)Cc1ccccc1: -0.359
- CC(C)NC(=O)[C@@H]1c2ccccc2C(=O)N(Cc2ccccc2C(F)(F)F)[C@H]1c1ccc(CO)cc1: 0.41
- COCCOC(=O)N1C(=O)[C@@]2(c3cc(C#CC4(O)CCCCCC4)ccc31)[C@H](c1ccc(O)cc1)N1[C@H](c3ccccc3)[C@H](c3ccccc3)OC(=O)[C@H]1[C@@H]2C(=O)N1CCCCCCC1: -0.0596
- CCOC(=O)c1cn(C[C@H](Cc2ccccc2)NC(=O)N[C@H](CO)CCc2oc(C(C)=O)c(C(=O)OC)c2C(=O)OC)nn1: -0.107
- COC(=O)[C@@]1(Cc2ccc(F)cc2)[C@H]2c3cc(C(=O)N4CCCC4)n(Cc4ccccn4)c3C[C@H]2CN1C(=O)c1ccccc1: 0.0348
- CC(C)=CCCC(C)=CC(O)C1C=CC2C(=O)NC(=O)C2N1Nc1ccc(Cl)cc1Cl (stereo not drawn): 1.39
- COCCOC(=O)N1C(=O)[C@@]2(c3cc(C#CCC(C(=O)OC)C(=O)OC)ccc31)[C@H](C(=O)Nc1nc3ccccc3s1)[C@H]1C(=O)O[C@H](c3ccccc3)[C@H](c3ccccc3)N1[C@@H]2c1ccc(O)cc1: 0.119
- C=CCN1C(=O)[C@@]2(O[C@@H](CCn3cc([C@H](O)c4ccccc4)nn3)[C@H]([Si](C)(C)c3ccc(OC)cc3)[C@H]2C)c2cc(N3C(=O)c4cccc5cccc3c45)ccc21: -0.0586
- C=C(CCCC)C(=O)CC[C@H](OC(=O)c1ccccc1-c1ccccc1C(=O)O)c1ccc(OCCO)cc1: 0.0505
- Cc1ccc(N2C(=O)c3ccccc3[C@](C)(C(=O)NCCCN(C)C)[C@@H]2c2ccc(CO)cc2)nc1: -0.229
- COc1ccc([Si](C)(C)[C@@H]2[C@@H](CC(=O)N3Cc4ccccc4C[C@H]3CO)O[C@]3(C(=O)N(Cc4ccc(N5CCOC5=O)cc4)c4ccccc43)[C@H]2C)cc1: -0.262
- CC(C)(C)N1CC=CC23O[C@@H]4C=CCOC(=O)[C@@H]4[C@H]2C(=O)N(CCO)[C@@H]3C1=O (stereo partly drawn): 0.121
- C=C(COC)/C(=C/C[C@H](OC(C)=O)c1ccccc1OCCO)c1cc(C(=O)OC)ccc1OC: -1.15
- CN(C)CCCNC(=O)[C@@]1(C)c2ccccc2C(=O)N(Cc2ccc(OC(F)(F)F)cc2)[C@H]1c1ccc(CO)cc1: 0.395
- CCCCN1CC=CC23O[C@@H]4/C=C\CCCOC(=O)C4[C@H]2C(=O)N(C(CO)C(C)C)[C@@H]3C1=O (stereo partly drawn): 0.458
- O=C(NC1CC1)[C@@H]1c2ccccc2C(=O)N(Cc2ccc(OC(F)(F)F)cc2)[C@H]1c1ccc(CO)cc1: -0.453
- CC(C)(C)N1CC=CC23O[C@@H]4/C=C\CCCOC(=O)C4[C@H]2C(=O)N(CCCCCO)[C@@H]3C1=O (stereo partly drawn): 0.395
- COCCOC(=O)N1C(=O)[C@@]2(c3cc(C#Cc4ccc(OC)cc4)ccc31)[C@H](c1ccc(OCCO)cc1)N1[C@H](c3ccccc3)[C@H](c3ccccc3)OC(=O)[C@H]1[C@@H]2C(=O)NC[C@H](O)c1ccccc1: 0
- CC(C)C(=C=CC[C@H](O)c1ccccc1OCCO)C[C@H](O)COCc1ccccc1: 0.233
- O=C1C=C(c2ccccc2)C(=O)C2=C1CC([C@H]1Oc3ccccc3S(=O)(=O)N3CCC[C@@H]13)=CC2: 0.079
- COc1ccc([Si](C)(C)[C@H]2[C@H](CCO)O[C@@]3(C(=O)N(Cc4cccc(N(C=O)c5ccccc5)c4)c4ccccc43)[C@@H]2C)cc1: -1.73
